# MEASUREMENT_TARGET: Glucagon-like peptide 1 receptor (Homo sapiens)
# TEST_NAME: qHTS of GLP-1 Receptor Inverse Agonists (Inhibition Mode); further: nearly all actives have a fitted effect of over 55% in size
# CONDITION: HEK293 GLP-1R CRE-luciferase, luminescence, 24 h, GLP-1R form is constitutively active; series mostly up to 38.3 µM
Among all 410,000 compounds or so, about 6,400 (1.6%) were called active. Inconclusive results (about 20%) are left out. The call rests on the fitted dose curve; in most records, active means well fitted inhibition curve with a large enough effect; inconclusive means small, poorly fitted or top-dose-only effect; inactive means no such curve, though single readings can be large or run the other way. The sample holds actives, similar compounds and a random draw of the others, so the mix is not that of the screen.
// one of 1 (yes) (active), 0 (no) (inactive), no free text

MOLECULE | CATEGORY
CC(C)(C)c1nc2ccccc2c(=O)n1N1C(=O)c2ccccc2C1=O | 1 (yes)

Pending molecule:
What outcome does the record of this test show for C=CCOC(=O)c1ccccc1C(=O)OCC=C ?
0 (no)

---

# MEASUREMENT_TARGET: Glucagon-like peptide 1 receptor (Homo sapiens)
# TEST_NAME: qHTS of GLP-1 Receptor Inverse Agonists (Inhibition Mode); further: nearly all actives have a fitted effect of over 55% in size
# CONDITION: HEK293 GLP-1R CRE-luciferase, luminescence, 24 h, GLP-1R form is constitutively active; series mostly up to 38.3 µM
Screen size: about 410,000 compounds; about 6,400 (1.6%) were called active. About 20% were inconclusive and are not listed. Calls come from the whole dose curve; as a rule, active = well fitted inhibition curve with a large enough effect; inconclusive = small, poorly fitted or top-dose-only effect; inactive = no such curve, though single readings can be large or run the other way. The sample holds actives, similar compounds and a random draw of the others, so the mix is not that of the screen.
# output must be one of active, inactive

A selection of reference data follows.
COMPOUND | CATEGORY
CN(C(=O)COC(=O)CNC(=O)C12CC3CC(CC(C3)C1)C2)c1ccccc1 | inactive
COc1ccc(CN2C(=O)C(CC(=O)NCCN3CCOCC3)CC(C(=O)N(C(C)C)C(C)C)=C2C)cc1 (stereo not drawn) | inactive

Recorded test outcome, item CCCNC(=O)C1(C)CCCN(Cc2cccc(C(F)(F)F)c2)C1 (stereo not drawn)
inactive

Check the results log: what was the call for Cc1cccc(NS(=O)(=O)c2ccc(C)c(C(=O)NCc3cccnc3)c2)c1 ?
inactive

Record request — test call for Fc1cccc(Cc2noc(CN3CCN(c4cnccn4)CC3)n2)c1
inactive

Which outcome did this test record for the compound COC(=O)c1ccc(C(NC(=O)OCc2ccccc2)/C(F)=C/[C@@H](C)C(=O)O)cc1 (stereo partly drawn) ?
inactive

---

# MEASUREMENT_TARGET: Glucagon-like peptide 1 receptor (Homo sapiens) (UniProt P43220)
# Sequence (P43220 whole entry, looked up): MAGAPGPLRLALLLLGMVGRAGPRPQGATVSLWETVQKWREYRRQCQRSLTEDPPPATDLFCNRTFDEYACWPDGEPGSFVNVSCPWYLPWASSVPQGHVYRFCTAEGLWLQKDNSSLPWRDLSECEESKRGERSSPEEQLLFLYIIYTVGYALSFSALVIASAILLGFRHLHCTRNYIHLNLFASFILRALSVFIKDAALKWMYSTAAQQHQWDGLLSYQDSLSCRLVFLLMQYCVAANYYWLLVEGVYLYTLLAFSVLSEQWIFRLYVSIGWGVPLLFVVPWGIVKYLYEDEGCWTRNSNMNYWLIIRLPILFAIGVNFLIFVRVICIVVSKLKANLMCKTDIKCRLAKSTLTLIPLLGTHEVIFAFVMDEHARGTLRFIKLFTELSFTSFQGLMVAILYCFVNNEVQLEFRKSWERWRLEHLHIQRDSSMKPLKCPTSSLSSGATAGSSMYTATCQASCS
# TEST_NAME: qHTS of GLP-1 Receptor Inverse Agonists (Inhibition Mode); further: nearly all actives have a fitted effect of over 55% in size; further: potency means the concentration at half of the fitted maximal effect
# CONDITION: HEK293 GLP-1R CRE-luciferase, luminescence, 24 h, GLP-1R form is constitutively active; series mostly up to 38.3 µM
In all, about 410,000 compounds went through this assay and about 6,400 (1.6%) were called active. Not shown: some 20% with an inconclusive outcome. This is one part of a sample in which actives are shown more often than they occur.
RECORDED_ENDPOINT: Potency

Use these answered entries as a reference point.
COMPOUND | RESULT
O=C(c1ccco1)N1CCN(Cc2cccc(C(F)(F)F)c2)CC1 | inactive
CCCNC(=O)C1(C)CCN(C(=O)c2ccc(F)cc2Cl)C1 (stereo unspecified) | inactive
Cc1c(Br)cc(C(=O)N2CCCCCC2)c(C)c1C | 10 µM (active)
FC(F)(F)c1cccc(Cc2noc(CN3CCC(N4CCCCC4)CC3)n2)c1 | 5.62 µM (active)
CCNC(=S)Nc1cccc(Cl)c1C | inactive
CCc1nnc(NC(=O)c2ccco2)s1 | inactive
Cc1cc(C)n2c(NCc3ccccc3)c(CC(C)C)nc2n1 | inactive
CN1C[C@@H](CO)O[C@@H](n2cnc3c(N4CCN(CCO)CC4)ncnc32)C1 | inactive

Consider the record given below.
For CC(C)(C)OC(=O)Nc1ccc([C@@H](NC(=O)OC(C)(C)C)C(=O)OC(C)(C)C)cc1 , what is its reported Potency?
inactive

---

# MEASUREMENT_TARGET: Glucagon-like peptide 1 receptor (Homo sapiens) (UniProt P43220)
# TEST_NAME: qHTS of GLP-1 Receptor Inverse Agonists (Inhibition Mode); further: nearly all actives have a fitted effect of over 55% in size
# CONDITION: HEK293 GLP-1R CRE-luciferase, luminescence, 24 h, GLP-1R form is constitutively active; series mostly up to 38.3 µM
Screen size: about 410,000 compounds; about 6,400 (1.6%) were called active. Not shown: some 20% with an inconclusive outcome. The entries come from a sample that favours actives as a whole.

GIVEN_SMILES | outcome
CN(C)S(=O)(=O)c1cccc(NC(=O)Cc2ccsc2)c1 | inactive
CN(c1ccccc1)S(=O)(=O)c1cccc(C(=O)NNC(=O)c2ccncc2)c1 | inactive
O=[N+]([O-])c1ccc(N2CCOCC2)cc1 | inactive

---

# MEASUREMENT_TARGET: Glucagon-like peptide 1 receptor (Homo sapiens) (UniProt P43220)
# TEST_NAME: qHTS of GLP-1 Receptor Inverse Agonists (Inhibition Mode); further: nearly all actives have a fitted effect of over 55% in size
# CONDITION: HEK293 GLP-1R CRE-luciferase, luminescence, 24 h, GLP-1R form is constitutively active; series mostly up to 38.3 µM
About 6,400 (1.6%) of roughly 410,000 compounds were called active. Another 20% or so got no clear call; they are omitted. Calls come from the whole dose curve; as a rule, active = well fitted inhibition curve with a large enough effect; inconclusive = small, poorly fitted or top-dose-only effect; inactive = no such curve, though single readings can be large or run the other way. The sample holds actives, similar compounds and a random draw of the others, so the mix is not that of the screen.
Choose the fitting class; nothing outside true (active), false (inactive) is accepted.

Worked examples, 4 compounds total:
COMPOUND | CATEGORY
CCN(CC(=O)NCc1cccs1)S(=O)(=O)c1ccc(NC(C)=O)cc1 | false
COc1ccc(CN2C(=O)C(CC(=O)NC3CCCCC3)CC(C(=O)N3CCOCC3)=C2C)cc1 (stereo not drawn) | false
CC1CCN(Cc2nc(-c3ccc(Cl)cc3)no2)CC1 | false
CC(=O)Nc1c(-c2ccc(C)cc2)nc2ccc(Cl)cn12 | false

Could you please tell me the result logged for Cc1ccc(F)cc1NC(=O)CSCc1c(C)noc1C in this assay?
false

What outcome does the record of this test show for C[C@H](CO)N1C[C@H](C)[C@@H](CN(C)Cc2ccc3c(c2)OCO3)OCc2cnnn2CCCC1=O ?
false

Check the results log: what was the call for CCCCn1nnnc1C(c1ccccc1)N1CCN(c2ccccc2OC)CC1 (stereo not drawn) ?
false

Please share the test call associated with S=c1[nH]nc(-c2ccc(Cl)cc2)n1CC1CCCO1 (stereo not drawn) .
false

Call for entry CCC(C)CN1C(=O)CN(S(C)(=O)=O)CC1(C)C(=O)Nc1ccc2c(c1)OCCO2 (stereo not drawn) :
false

---

# MEASUREMENT_TARGET: Glucagon-like peptide 1 receptor (Homo sapiens)
# TEST_NAME: qHTS of GLP-1 Receptor Inverse Agonists (Inhibition Mode); further: nearly all actives have a fitted effect of over 55% in size
# CONDITION: HEK293 GLP-1R CRE-luciferase, luminescence, 24 h, GLP-1R form is constitutively active; series mostly up to 38.3 µM
Screen size: about 410,000 compounds; about 6,400 (1.6%) were called active. Inconclusive results (about 20%) are left out. Calls come from the whole dose curve; as a rule, active = well fitted inhibition curve with a large enough effect; inconclusive = small, poorly fitted or top-dose-only effect; inactive = no such curve, though single readings can be large or run the other way. Shown is part of a subset that was picked to be rich in actives.
Output constraint: value belongs to class 1 for active, class 0 for inactive

COMPOUND | CATEGORY
CCCCCn1nnnc1C1c2ccccc2C(=O)N1Cc1ccco1 (stereo not given) | class 0
COC(=O)Nc1nc2ccc(Sc3ccccc3)cc2[nH]1 | class 1
CC(C)c1ccccc1OCC(O)CN(CC(O)COc1cccc2ccccc12)C(C)C (stereo not given) | class 1
CCN(CC)S(=O)(=O)c1ccc(N2CCCC2)c(NS(=O)(=O)c2cccs2)c1 | class 0
Cc1ccc([C@H]2N[C@]3(CCCN(Cc4ccccc4)C3=O)[C@H]3C(=O)N(Cc4ccccc4)C(=O)[C@@H]23)cc1 | class 0

Lab log entry: O=C1[C@H]2[C@@H](c3ccc(C(F)(F)F)cc3)N[C@]3(CCCN(Cc4ccc(Br)cc4)C3=O)[C@H]2C(=O)N1Cc1ccccc1 — outcome as called in the assay?
class 1

Give the logged outcome of this assay for the following compound: COc1ccc(NC(=O)N(C)C[C@@H]2OCc3cn(nn3)CCCC(=O)N([C@H](C)CO)C[C@H]2C)c(OC)c1
class 0

Entry CCN(CC)S(=O)(=O)c1ccc(Cl)c(C(=O)NC(C)C(c2cccs2)N2CCCC2)c1 (stereo not given) : call = ?
class 1

Recorded test outcome, item OCCN1CCN(c2ncnc3c2ncn3[C@H]2CN(Cc3ccco3)C[C@@H](CO)O2)CC1
class 0

Which outcome did this test record for the compound O=C(CSCc1ccc(Cl)cc1)N1CCN(Cc2ccc3c(c2)OCO3)CC1 ?
class 1

---

# MEASUREMENT_TARGET: Glucagon-like peptide 1 receptor (Homo sapiens)
# TEST_NAME: qHTS of GLP-1 Receptor Inverse Agonists (Inhibition Mode); further: nearly all actives have a fitted effect of over 55% in size
# CONDITION: HEK293 GLP-1R CRE-luciferase, luminescence, 24 h, GLP-1R form is constitutively active; series mostly up to 38.3 µM
Hit rate of the full screen: of about 410,000 compounds, about 6,400 (1.6%) were called active. Another 20% or so got no clear call; they are omitted. The call rests on the fitted dose curve; in most records, active means well fitted inhibition curve with a large enough effect; inconclusive means small, poorly fitted or top-dose-only effect; inactive means no such curve, though single readings can be large or run the other way. The entries come from a sample that favours actives as a whole.
The reply should name one outcome from 1 (yes) = active, 0 (no) = inactive

Example entries begin here.
COMPOUND | CATEGORY
Cc1cccc(C)c1NC(=O)CN1CCN(c2ccc(F)cc2)CC1 | 0 (no)
C[C@H]1CN([C@@H](C)CO)C(=O)CCCn2cc(nn2)CO[C@@H]1CN(C)S(=O)(=O)c1cccs1 | 0 (no)
COCCNC(=O)C1(C)CCCN(Cc2cccc(F)c2)C1 (centres undefined) | 0 (no)
Cc1cccnc1NC(=O)c1cccc(S(=O)(=O)N2CCN(c3ccc(F)cc3)CC2)c1 | 0 (no)
COCCN(CCOC)S(=O)(=O)c1ccc(/C(O)=C(\C#N)c2nc3ccccc3[nH]2)cc1 | 0 (no)

Could you kindly confirm the outcome this assay logged for COC(=O)C[C@H]1C[C@@H]2c3cc(N(C)C)ccc3O[C@@H]2[C@H](CO)O1 ?
0 (no)

Hi, do you know how COc1cccc(-c2cccc(NC(=O)C3CCN(C4CCC4)CC3)c2)c1 came out in this test?
0 (no)

Which outcome was entered for the compound CC=CCn1c(SCCCc2ccccc2)nc2c1c(=O)[nH]c(=O)n2C in this test?
0 (no)
